- Measured on: FKBP (Homo sapiens, UniProt P62942)
- Sequence (P62942 whole entry): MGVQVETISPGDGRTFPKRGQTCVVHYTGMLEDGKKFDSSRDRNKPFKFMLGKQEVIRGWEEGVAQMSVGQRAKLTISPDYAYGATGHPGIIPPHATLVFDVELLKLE
- Experimental protocol: PPIase Inhibition Assay
- Assay type: biochemical
- Condition notes: concentration of inhibitor required for 50% inhibition of enzyme activity; FKBP, substrate Succinyl-Ala-Phe-Pro-Phe-para-nitroanilide; TABLE I
pIC50: −log10 of the molar value. Structures can show the parent of a compound that is named as a salt.
Listing: pIC50 of selected compounds
Measured quantity: pIC50

COc1cc(C(=O)CN2CCC[C@H]2C(=O)N[C@H](C)c2ccccc2)cc(OC)c1OC [Example 137, Hydrochloride] | < 5.30
CC[C@H](C)[C@H](NC(=O)[C@@H]1CCCN1CC(=O)C1CCc2ccccc2O1)C(=O)NCc1ccccc1 (stereo partly drawn) [Example 99, Hydrochloride Salt] | 5.30
CC[C@H](C)[C@H](NC(=O)[C@@H]1CCCN1CC(=O)c1ccc(OC)c(OC)c1OC)C(=O)NCc1ccccc1 | < 5.30
COc1cc(C(=O)CN2CCC[C@H]2C(=O)NCCc2ccc(NC(C)=O)cc2)cc(OC)c1OC | < 5.30
COc1cc(C(=O)CN2CCC[C@H]2C(=O)NCCc2ccc(NC(=O)OCc3ccccc3)cc2)cc(OC)c1OC | < 5.30
CC[C@H](C)[C@H](NC(=O)[C@@H]1CCCN1CC(=O)c1ccc(O)c(O)c1)C(=O)NCc1ccccc1 | > 4.30
COc1cc(C(=O)CN2CCC[C@H]2C(=O)N(C)CCc2ccccc2)cc(OC)c1OC | < 5.30
CC[C@H](C)[C@H](NC(=O)[C@@H]1CCCN1CC(=O)C12CC3CC(CC(C3)C1)C2)C(=O)NCc1ccccc1 | 7.22
CC[C@H](C)[C@H](NC(=O)[C@@H]1CCCN1CC(=O)c1cc(OC)c(OC)c(OC)c1)C(=O)NCc1ccccc1 | > 5.30
C=CCOC(=O)Nc1ccc(CCCOC(=O)[C@@H]2CCCCN2CC(=O)C23CC4CC(CC(C4)C2)C3)cc1 [Example 161, Hydrochloride] | < 5.30
CC[C@H](C)[C@@H](C(=O)NCc1ccccc1)N(C)C(=O)[C@@H]1CCCN1CC(=O)OCc1ccccc1 | < 4.30
CC[C@H](C)[C@H](NC(=O)[C@@H]1CCCN1CC(=O)N1CCCC1)C(=O)NCc1ccccc1 | < 5.30

* * *

- Measured on: FKBP (Homo sapiens, UniProt P62942)
- Experimental protocol: PPIase Inhibition Assay
- Type: biochemical
- Condition notes: concentration of inhibitor required for 50% inhibition of enzyme activity; FKBP, substrate Succinyl-Ala-Phe-Pro-Phe-para-nitroanilide; TABLE I
- Protocol: 1) Inhibition of PPIase Activity This assay follows in principle the procedure described in Kofron et al., 1991, Biochemistry 30:6127. The three main reagents used are PPIase, a substrate for PPIase, and a selected inhibitor compound of the present invention. […] Essentially, inhibition of this PPIase activity is measured for the selected compounds. […] The absorbance at 390 nm versus time is monitored for 90 sec using a Beckman DU70 spectrophotometer. […]
Where a name gives a salt, the structure may show the parent alone.
Measured quantity: IC50

COc1cc(C(=O)CN2CCC[C@H]2C(=O)NC(Cc2ccccc2)c2ccccc2)cc(OC)c1OC (some centres unmarked) | > 5 µM
CC[C@H](C)[C@H](NC(=O)[C@@H]1CCCN1CC(=O)c1ccc(C)cc1)C(=O)NCc1ccccc1 | < 50 µM
CC[C@H](C)[C@H](NC(=O)[C@@H]1CCCN1CC(=O)c1ccccc1Oc1ccccc1)C(=O)NCc1ccccc1 | < 5 µM
COc1cc(C(=O)CN2CCCC[C@H]2C(=O)N[C@@H](CCc2ccccc2)CC(C)C)cc(OC)c1OC | > 5 µM
CC[C@H](C)[C@@H](C(=O)NCc1ccccc1)N(C)C(=O)[C@@H]1CCCN1CC(=O)c1ccccc1 | > 50 µM
CC[C@H](C)[C@H](NC(=O)[C@@H]1CCCN1CC(=O)C12CC3CC(CC(C3)C1)C2)C(=O)N[C@H](C)c1ccccc1 | 0.1 µM
CC[C@H](C)[C@H](NC(=O)[C@@H]1CCCN1CC(=O)C12CC3CC(CC(C3)C1)C2)C(=O)NCc1ccccn1 | 0.4 µM
COc1cc(C(=O)CN2CCC[C@H]2C(=O)NCCCCc2ccccc2)cc(OC)c1OC [Example 123, Hydrochloride] | > 5 µM
COc1cc(C(=O)CN2CCC[C@H]2C(=O)NC(c2ccccc2)c2ccccc2)cc(OC)c1OC [Example 142, Hydrochloride] | > 5 µM
COc1cc(C(=O)CN2CCCC[C@H]2C(=O)NCCc2ccc(S(N)(=O)=O)cc2)cc(OC)c1OC | > 5 µM
COc1cc(C(=O)CN2CCCC[C@H]2C(=O)NCc2ccccc2)cc(OC)c1OC [Example 146, Hydrochloride] | > 5 µM
COc1cc(C(=O)CN2CCC[C@H]2C(=O)NCCCc2ccccc2)cc(OC)c1OC [Example 122, Hydrochloride] | > 5 µM
CCCCCC1CCC(C(=O)CN2CCC[C@H]2C(=O)N[C@H](C(=O)NCc2ccccc2)[C@@H](C)CC)CC1 (some centres unmarked) | > 5 µM
COc1cc(C(=O)CN2CCC[C@H]2C(=O)N[C@H](C)c2cccc3ccccc23)cc(OC)c1OC [Example 140, Hydrochloride] | > 5 µM
CCC[C@H](NC(=O)[C@@H]1CCCN1CC(=O)C12CC3CC(CC(C3)C1)C2)C(=O)NCc1ccccc1 | 0.71 µM
CC[C@H](C)[C@H](NC(=O)[C@@H]1CCCN1CC(=O)c1ccc([N+](=O)[O-])cc1)C(=O)NCc1ccccc1 | < 50 µM
CC[C@H](C)[C@H](NC(=O)[C@@H]1CCCN1CC(=O)c1cccc(OC)c1OC)C(=O)NCc1ccccc1 | < 5 µM
